assayed-target: FLT3 R834Q (Homo sapiens, UniProt P36888, R834Q)
assay-overview: DiscoverX KINOMEscan competition binding, FLT3 R834Q
Measured Kd values are reported for all entries that follow.
# output: bare number, implied unit nM

molecule	assayed-target	parameter	recorded-result
COc1cc2ncc(-c3cncc(N[C@H]4CNCC[C@@H]4F)n3)n2nc1C1CC1	FLT3 R834Q (Homo sapiens, UniProt P36888, R834Q)	Kd	1.8
COc1cc2ncc(-c3ccnc(N[C@@H]4CCCNC4)n3)n2cc1C(C)(C)O	FLT3 R834Q (Homo sapiens, UniProt P36888, R834Q)	Kd	1.4
CC(O)(c1cn2c(-c3ccnc(N[C@H]4CNCC[C@@H]4F)n3)cnc2cn1)C(F)(F)F (single isomer, unassigned)	FLT3 R834Q (Homo sapiens, UniProt P36888, R834Q)	Kd	14

Can you share its Kd? I mean this molecule: `F[C@H]1CCNC[C@@H]1Nc1cncc(-c2cnc3cc(OC4CC4)ccn23)n1`
18

Taken from patent US20250154144A1.
